- target-or-test-system: factor Xa (Homo sapiens, UniProt P00742)
- Sequence (P00742 235-488 limits assumed): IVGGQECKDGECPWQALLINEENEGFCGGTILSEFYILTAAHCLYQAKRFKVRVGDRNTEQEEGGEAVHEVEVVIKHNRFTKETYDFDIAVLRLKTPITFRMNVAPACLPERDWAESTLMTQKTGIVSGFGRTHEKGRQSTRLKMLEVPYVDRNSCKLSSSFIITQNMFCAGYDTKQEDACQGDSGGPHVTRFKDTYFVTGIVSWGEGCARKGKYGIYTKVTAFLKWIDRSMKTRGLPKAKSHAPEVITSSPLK
- Sequence (P00742 41-179 partner limits assumed): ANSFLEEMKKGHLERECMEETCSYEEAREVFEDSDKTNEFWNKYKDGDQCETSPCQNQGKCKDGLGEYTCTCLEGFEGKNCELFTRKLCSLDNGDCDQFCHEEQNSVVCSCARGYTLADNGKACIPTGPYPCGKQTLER
- measurement-description: biochemical
- assay-conditions: read-out: Kass Xa (converted)
- Source text: […]
Where a name gives a salt, the structure may show the parent alone.
Assign labels as follows, please: y for Kd below 20 µM; n for Kd equal to or exceeding 20 µM.

{"compound": "N=C(N)c1ccc(CNC(=O)[C@@H]2CCCN2C(=O)[C@@H](CCC2CCCCC2)NCC(=O)O)cc1", "discrete-label": "y"}
{"compound": "NC[C@H]1CC[C@H](CNC(=O)[C@@H]2CCCN2C(=O)[C@H](N)Cc2ccccc2)CC1", "discrete-label": "n"}
{"compound": "O=C(O)CN[C@H](CC1CCCCC1)C(=O)N1CCC[C@H]1C(=O)NCCCC1CCNCC1", "discrete-label": "n"}
{"compound": "CCS(=O)(=O)N[C@H](Cc1ccccc1)C(=O)N1CCC[C@H]1C(=O)NCCc1ccc(NC(=N)N)cc1", "discrete-label": "n"}
{"compound": "N=C(N)Nc1cccc(CNC(=O)[C@@H]2CCCN2C(=O)[C@@H]2NCC[C@@H]3CCCC[C@@H]32)c1 [Example 40, D-1-Piq-Pro-m-NHCH2C6H4NHC(NH)NH2·2HCl]", "discrete-label": "n"}
{"compound": "N=C(N)c1ccc(CNC(=O)[C@@H]2CCCN2C(=O)[C@@H](CC2CCCCC2)NCC(=O)O)cc1", "discrete-label": "y"}
{"compound": "N=C(N)NCCCNC(=O)[C@@H]1CCCN1C(=O)[C@H](N)Cc1ccccc1 [Example 7, D-Phe-Pro-NH(CH2)3NHC(NH)NH2·HCl]", "discrete-label": "n"}
{"compound": "N=C(N)c1ccc(CCNC(=O)[C@@H]2CCCN2C(=O)[C@@H]2NCC[C@@H]3CCCC[C@@H]32)cc1 [Example 28, 1-Piq-Pro-p-NHCH2CH2-C6H4C(=NH)NH2·2HCl]", "discrete-label": "n"}
{"compound": "N=C(N)Nc1cccc(CCNC(=O)[C@@H]2CCCN2C(=O)[C@@H]2NCC[C@@H]3CCCC[C@@H]32)c1", "discrete-label": "n"}
{"compound": "N=C(N)c1ccc(CNC(=O)[C@@H]2CCCN2C(=O)[C@@H](Cc2ccccc2)NCC(=O)O)cc1", "discrete-label": "y"}
{"compound": "N=C(N)c1ccc(CCCNC(=O)[C@@H]2CCCN2C(=O)[C@@H]2NCC[C@@H]3CCCC[C@@H]32)cc1", "discrete-label": "n"}
{"compound": "CCC(CC)C(=O)N[C@@H](CCC(=O)O)C(=O)N1CCC[C@H]1C(=O)NCc1ccc(C(=N)N)cc1", "discrete-label": "n"}
{"compound": "CCS(=O)(=O)N[C@H](Cc1ccccc1)C(=O)N1CCC[C@H]1C(=O)NCc1cccc(C(=N)N)c1", "discrete-label": "n"}

* * *

- target-or-test-system: t-PA (Homo sapiens)
- Sequence (P00750 36-562): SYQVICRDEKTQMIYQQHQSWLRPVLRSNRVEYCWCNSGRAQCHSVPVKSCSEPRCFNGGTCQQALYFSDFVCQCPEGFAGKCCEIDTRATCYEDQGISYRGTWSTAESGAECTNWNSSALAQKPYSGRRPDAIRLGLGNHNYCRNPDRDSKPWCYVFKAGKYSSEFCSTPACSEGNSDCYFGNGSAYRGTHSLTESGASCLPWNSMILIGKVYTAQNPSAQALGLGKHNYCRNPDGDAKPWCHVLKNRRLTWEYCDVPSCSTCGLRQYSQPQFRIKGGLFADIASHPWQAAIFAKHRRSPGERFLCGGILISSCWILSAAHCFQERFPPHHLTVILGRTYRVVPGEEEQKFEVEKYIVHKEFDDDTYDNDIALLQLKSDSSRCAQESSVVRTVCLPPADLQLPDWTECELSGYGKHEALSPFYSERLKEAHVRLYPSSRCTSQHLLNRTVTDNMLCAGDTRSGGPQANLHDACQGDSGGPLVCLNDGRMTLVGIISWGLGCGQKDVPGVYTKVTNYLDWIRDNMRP
- measurement-description: biochemical
- Description: […]
Where a name gives a salt, the structure may show the parent alone.

{"compound": "N=C(N)c1ccc(CNC(=O)[C@@H]2CCCN2C(=O)[C@H](N)Cc2ccccc2)cc1 [Example 15, hydrochloride]", "Kd, µM": 250}

* * *

- target-or-test-system: Human Thrombin (Homo sapiens, UniProt P00734)
- measurement-description: biochemical
- assay-conditions: read-out: Kass Human Thrombin (converted)
Where a name gives a salt, the structure may show the parent alone.
The label is 1 for Kd below 300 nM and -1 for Kd equal to or exceeding 300 nM.

{"compound": "N=C(N)c1ccc(CCNC(=O)[C@@H]2CCCN2C(=O)[C@@H]2NCC[C@@H]3CCCC[C@@H]32)cc1 [Example 28, 1-Piq-Pro-p-NHCH2CH2-C6H4C(=NH)NH2·2HCl]", "discrete-label": -1}
{"compound": "N=C(N)c1ccc(CNC(=O)[C@@H]2C[C@@H]3CCCC[C@@H]3N2C(=O)[C@H]2C[C@H]3CCCC[C@H]3CN2)cc1 [Example 43, D-3-Piq-cis-Ohi-p-NHCH2C6H4C(NH)NH2·2HCl]", "discrete-label": -1}
{"compound": "CCS(=O)(=O)N[C@H](Cc1ccccc1)C(=O)N1CCC[C@H]1C(=O)NCc1cccc(NC(=N)N)c1 [Example 36]", "discrete-label": -1}
{"compound": "Nc1cc(CCNC(=O)[C@@H]2CCCN2C(=O)[C@@H](CC2CCCCC2)NCC(=O)O)ccn1 [Example 76]", "discrete-label": 1}
{"compound": "N=C(N)c1ccc(CNC(=O)[C@@H]2C[C@H](Oc3ccccc3)CN2C(=O)[C@H]2CCCCN2)cc1 [Example 22]", "discrete-label": -1}
{"compound": "N=C(N)c1ccc(CNC(=O)[C@@H]2CCCN2C(=O)[C@@H](CCC2CCCCC2)NCC(=O)O)cc1 [Example 88]", "discrete-label": 1}
{"compound": "CCS(=O)(=O)N[C@H](Cc1ccccc1)C(=O)N1CCC[C@H]1C(=O)NCc1ccc(C(=N)N)cc1 [Example 23]", "discrete-label": 1}
{"compound": "N=C(N)N1CC=C(CNC(=O)[C@@H]2CCCN2C(=O)[C@@H](CC2CCCCC2)NCC(=O)O)CC1 [Example 70]", "discrete-label": 1}
{"compound": "N=C(N)NCCCCCCNC(=O)[C@@H]1CCCN1C(=O)[C@H](N)Cc1ccccc1 [Example 5, D-Phe-Pro-NH(CH2)6NHC(NH)NH2·HCl]", "discrete-label": -1}
{"compound": "N=C(N)c1ccc(CNC(=O)[C@@H]2CCCN2C(=O)[C@H]2C[C@H]3CCCC[C@H]3CN2)cc1 [Example 19, D-3-Piq-Pro-p-NHCH2C6H4C(NH)NH2·3HCl]", "discrete-label": 1}
{"compound": "N=C(N)c1ccc(CNC(=O)[C@@H]2CCCN2C(=O)[C@H]2CCCCN2)cc1 [Example 17, D-hPro-Pro-p-NHCH2C6H4C(NH)NH2·HCl]", "discrete-label": 1}
{"compound": "N=C(N)c1ccc(CNC(=O)CN(CCc2ccccc2)C(=O)[C@H]2CCCCN2)cc1 [Example 21]", "discrete-label": 1}
{"compound": "CCS(=O)(=O)N[C@H](Cc1ccccc1)C(=O)N1CCC[C@H]1C(=O)NCCCc1ccc(C(=N)N)cc1 [Example 30]", "discrete-label": -1}
